assay: Pharmacokinetic study in vivo; set-up: species or system BALB/c mice; conditions: male, BALB/c, mouse, plasma, iv; mice, 2 mg/kg
measurementKind: half-life (min)
The answer is to be given in min; state only the numeric part.

Which half-life value belongs to CN1CCN(Cc2cccc(C(=O)NC3CCC(=O)NC3=O)c2F)C(=O)C1 (stereo not shown) ?
12

* * *

assay: Pharmacokinetic study in vivo; design: species or system BALB/c mice; conditions: male, BALB/c, mouse, plasma, po, 50 mg/kg, mice
measurementKind: Tmax

Which Tmax value belongs to CN1CCN(Cc2cccc(C(=O)NC3CCC(=O)NC3=O)c2F)C(=O)C1 (stereo not shown) [MGD-C9] ?
~30 min
